This collection of values is drawn from paper PMC7080202.

Tested on: Para-influenza-3 virus
Experiment: organism not typed
Format: cell-based, parainfluenza-3 virus
Conditions: Vero, read-out: Antiviral activity EC50 Para-influenza-3 virus
READOUT_TYPE: EC50

In the examples that follow, each entry is paired with its recorded EC50.
compound=O=C(N/N=C1\C(=O)Nc2ccc([N+](=O)[O-])cc21)N/N=C1\C(=O)Nc2ccc([N+](=O)[O-])cc21 endpoint_result="> 100 µM"
compound=O=C(N/N=C1\C(=O)Nc2ccc(Cl)cc21)N/N=C1\C(=O)Nc2ccc(Cl)cc21 endpoint_result="> 20 µM"
compound=Cc1ccc2c(c1)/C(=N/NC(=O)N/N=C1\C(=O)Nc3ccc(C)cc31)C(=O)N2 endpoint_result="> 20 µM"
compound="Nc1ncnc2c1ncn2C[C@H](O)CO [(S)-DHPA, reference compound]" endpoint_result="> 250 µM"

Next up:
Measured EC50, `O=C1/C(=N\NC(=S)NN=Cc2ccccc2)c2ccccc2N1Cc1ccccc1` : > 100 µM

* * *

Catalogue of pEC50 readings, one per entry.
Test system: Coxsackie virus B4
Experiment: microbe, parasite or virus in culture
Format: cell-based
Conditions: Enterovirus B, B4, HeLa, read-out: Antiviral activity EC50 Coxsackie virus B4
pEC50: −log10 of the molar value.

compound=O=C1Nc2ccccc2/C1=N/NC(=S)N/N=C1\C(=O)Nc2ccccc21 endpoint_result="< 4.00"
compound="NC(=O)c1ncn([C@@H]2O[C@H](CO)[C@@H](O)[C@H]2O)n1 [Ribavirin, reference compound]" endpoint_result=3.95

Lab note: `Cc1ccc2c(c1)/C(=N/NC(=O)N/N=C1\C(=O)Nc3ccc(C)cc31)C(=O)N2` gave pEC50 of < 4.00

* * *

Tested on: Human embryonic lung cell cultures
Assay: Cytotoxicity
Format: cell-based
// reported Minimum cytotoxic concentration per item

compound=O=C(N/N=C1\C(=O)Nc2ccc(Cl)cc21)N/N=C1\C(=O)Nc2ccc(Cl)cc21 endpoint_result="100 µM"
compound=O=C(N/N=C1\C(=O)Nc2ccccc21)N/N=C1\C(=O)Nc2ccccc21 endpoint_result="≥100 µM"

Memo: `O=C1/C(=N\NC(=S)NN=Cc2ccccc2)c2ccccc2N1Cc1ccccc1` , reported Minimum cytotoxic concentration: ≥100 µM

Consider Nc1ccn(C[C@@H](CO)OCP(=O)(O)O)c(=O)n1 [Cidofovir, reference compound] . Its measured Minimum cytotoxic concentration is >300 µM

Recorded Minimum cytotoxic concentration (compound `O=C1Nc2ccccc2/C1=N/NC(=S)N/N=C1\C(=O)Nc2ccccc21` ): 100 µM

* * *

System: MDCK cells
Conditions: microscopically detectable alteration of normal cell morphology
Cytotoxicity Minimum cytotoxic concentration values for the compounds below.

Worked examples follow.
compound=O=C1Nc2ccccc2/C1=N/NC(=S)N/N=C1\C(=O)Nc2ccccc21 endpoint_result=>100
compound=O=C1/C(=N\NC(=S)NN=Cc2ccccc2)c2ccccc2N1Cc1ccccc1 endpoint_result=>100

The value of Cytotoxicity Minimum cytotoxic concentration measured for the compound `O=C(N/N=C1\C(=O)Nc2ccc(Cl)cc21)N/N=C1\C(=O)Nc2ccc(Cl)cc21` turned out to be >100

Quick note, Cytotoxicity Minimum cytotoxic concentration for CC(N)C12CC3CC(CC(C3)C1)C2 (stereo not shown) [Rimantadine, reference compound] landed at >200

* * *

Tested on: Vaccinia virus
Assay: microbe, parasite or virus in culture
Assay type: cell-based
Conditions: Orthopoxvirus vaccinia, HEL, read-out: EC50 Vaccinia virus
READOUT_TYPE: EC50

Example entries and their recorded answers appear below.
compound="O=C1Nc2ccccc2/C1=N/NC(=S)N/N=C1\\C(=O)Nc2ccccc21 [6e]" readout_type=EC50 endpoint_result="> 100 µM"
compound="Nc1ccn(C[C@@H](CO)OCP(=O)(O)O)c(=O)n1 [Cidofovir, reference compound]" readout_type=EC50 endpoint_result="22 µM"
compound="O=c1[nH]c(=O)n([C@H]2C[C@H](O)[C@@H](CO)O2)cc1/C=C/Br [Brivudin, reference compound]" readout_type=EC50 endpoint_result="4 µM"
compound="Cc1ccc2c(c1)/C(=N/NC(=O)N/N=C1\\C(=O)Nc3ccc(C)cc31)C(=O)N2 [6c]" readout_type=EC50 endpoint_result="> 100 µM"
compound="O=C(N/N=C1\\C(=O)Nc2ccc([N+](=O)[O-])cc21)N/N=C1\\C(=O)Nc2ccc([N+](=O)[O-])cc21 [6d]" readout_type=EC50 endpoint_result="> 100 µM"

The measured EC50 associated with O=C(N/N=C1\C(=O)Nc2ccc(Cl)cc21)N/N=C1\C(=O)Nc2ccc(Cl)cc21 [6b] reads > 100 µM

Data point: O=C1/C(=N\NC(=S)NN=Cc2ccccc2)c2ccccc2N1Cc1ccccc1 [4g] ; EC50 = > 100 µM

* * *

Assay: in vitro
Conditions: dog
Item-by-item account of CC50

compound="NC12CC3CC(CC(C3)C1)C2 [Amantadine, reference compound]" readout_type=CC50 endpoint_result="> 200 µM"
compound=O=C(N/N=C1\C(=O)Nc2ccc(Cl)cc21)N/N=C1\C(=O)Nc2ccc(Cl)cc21 readout_type=CC50 endpoint_result="> 100 µM"
compound=O=C(N/N=C1\C(=O)Nc2ccccc21)N/N=C1\C(=O)Nc2ccccc21 readout_type=CC50 endpoint_result="> 100 µM"
compound=Cc1ccc2c(c1)/C(=N/NC(=O)N/N=C1\C(=O)Nc3ccc(C)cc31)C(=O)N2 readout_type=CC50 endpoint_result="46 µM"

CC50 measured on CCC(CC)O[C@@H]1C=C(C(=O)O)C[C@H](N)[C@H]1NC(C)=O [Oseltamivir carboxylate, reference compound] = > 100 µM

CC50 recorded for this compound, CC(N)C12CC3CC(CC(C3)C1)C2 (stereo not drawn) [Rimantadine, reference compound] , is > 200 µM

* * *

// values below are reported Minimum cytotoxic concentration
Tested on: HeLa cell cultures
Test: Cytotoxicity
Type: cell-based

compound=O=C(N/N=C1\C(=O)Nc2ccccc21)N/N=C1\C(=O)Nc2ccccc21 readout_type="Minimum cytotoxic concentration" endpoint_result=">100 µM"
compound="Nc1ncnc2c1ncn2C[C@H](O)CO [(S)-DHPA, reference compound]" readout_type="Minimum cytotoxic concentration" endpoint_result=">250 µM"
compound=O=C(N/N=C1\C(=O)Nc2ccc(Cl)cc21)N/N=C1\C(=O)Nc2ccc(Cl)cc21 readout_type="Minimum cytotoxic concentration" endpoint_result=">100 µM"
compound=O=C1/C(=N\NC(=S)NN=Cc2ccccc2)c2ccccc2N1Cc1ccccc1 readout_type="Minimum cytotoxic concentration" endpoint_result="100 µM"
compound=O=C(N/N=C1\C(=O)Nc2ccc([N+](=O)[O-])cc21)N/N=C1\C(=O)Nc2ccc([N+](=O)[O-])cc21 readout_type="Minimum cytotoxic concentration" endpoint_result=">100 µM"
compound=Cc1ccc2c(c1)/C(=N/NC(=O)N/N=C1\C(=O)Nc3ccc(C)cc31)C(=O)N2 readout_type="Minimum cytotoxic concentration" endpoint_result=">100 µM"

Value of Minimum cytotoxic concentration reported for the compound `O=C1Nc2ccccc2/C1=N/NC(=S)N/N=C1\C(=O)Nc2ccccc21` is >100 µM

Record NC(=O)c1ncn([C@@H]2O[C@H](CO)[C@@H](O)[C@H]2O)n1 [Ribavirin, reference compound] , field Minimum cytotoxic concentration: >250 µM

* * *

Test system: Influenza B
Assay: Anti-influenza virus activity, influenza B in MDCK cells
Format: cell-based, influenza B virus B/Hong Kong/5/72
Conditions: Influenza B virus, MDCK, read-out: Antiviral EC50 Influenza B Visual CPE score
READOUT_TYPE: EC50

Some solved cases for reference:
molecule="CCC(CC)O[C@@H]1C=C(C(=O)O)C[C@H](N)[C@H]1NC(C)=O [Oseltamivir carboxylate, reference compound]" endpoint_result="6.7 µM"
molecule="O=C1/C(=N\\NC(=S)NN=Cc2ccccc2)c2ccccc2N1Cc1ccccc1 [4g]" endpoint_result="> 100 µM"

Measured EC50, O=C(N/N=C1\C(=O)Nc2ccccc21)N/N=C1\C(=O)Nc2ccccc21 [6a] : > 100 µM

NC12CC3CC(CC(C3)C1)C2 [Amantadine, reference compound] yielded EC50 of > 200 µM

* * *

Tested on: MDCK cells
Settings: microscopically detectable alteration of normal cell morphology
READOUT_TYPE: Cytotoxicity Minimum cytotoxic concentration

molecule="O=C(N/N=C1\\C(=O)Nc2ccc([N+](=O)[O-])cc21)N/N=C1\\C(=O)Nc2ccc([N+](=O)[O-])cc21 [6d]" assayed_system="MDCK cells" endpoint_result=>100
molecule="Cc1ccc2c(c1)/C(=N/NC(=O)N/N=C1\\C(=O)Nc3ccc(C)cc31)C(=O)N2 [6c]" assayed_system="MDCK cells" endpoint_result=≥20

Proceeding to the next molecule to report its Cytotoxicity Minimum cytotoxic concentration.
CCC(CC)O[C@@H]1C=C(C(=O)O)C[C@H](N)[C@H]1NC(C)=O [Oseltamivir carboxylate, reference compound] on MDCK cells gives Cytotoxicity Minimum cytotoxic concentration = >100

* * *

Listed below: EC50 values for each entry.
Tested on: Vaccinia virus
Assay: microbe, parasite or virus in culture
Type: cell-based
Conditions: Orthopoxvirus vaccinia, HEL, read-out: EC50 Vaccinia virus

molecule=O=C(N/N=C1\C(=O)Nc2ccccc21)N/N=C1\C(=O)Nc2ccccc21 endpoint_result="> 100 µM"
molecule="Nc1nc(O)c2ncn(COC(CO)CO)c2n1 [Ganciclovir, reference compound]" endpoint_result="> 100 µM"

Now look at this one.
EC50 in this record for Nc1nc2c(ncn2COCCO)c(=O)[nH]1 [Acyclovir, reference compound] : > 250 µM
